Test system: OVCAR-3 ovarian
Assay: NCI tumour cell line growth inhibition, 48 h
endpoint label: TGI (µM)

Cc1cc(C2=NNC(=O)Cc3cc4c(cc32)OCCO4)cc(C)c1N    5.6
O=C(CSC(c1ccccc1)c1ccccc1)N/N=C/c1cccc(Cl)c1    38.9
CCOC(=O)/C=C/c1cc2cc(-c3csc4ccccc34)ccc2[nH]1    17.1
COC(=O)C1=C(C(=O)OC)C23CC1C1C(C(=O)OC)=C(C(=O)OC)C12C1C=CC3C2C(=O)OC(=O)C21 (stereo not given)    17.6

* * *

Tested on: ACHN renal
Assay: NCI tumour cell line growth inhibition, 48 h; in the data active = GI50 below about 0.43 µM; inactive = the rest
Classes used: active, inactive

C/C(=N\N=C(\[Se])N1CCN(c2ccccn2)CC1)c1ccccn1    active
CC(=O)O[C@H](C[C@H](C(C)C)N(C)C(=O)[C@@H](NC(=O)[C@H]1CCCCN1C)C(C)C)c1nc(C(=O)N[C@@H](Cc2ccccc2)C[C@H](C)C(=O)O)c(C(C)C)s1    active
CCOC(=O)/C=C/c1cc2cc(-c3csc4ccccc34)ccc2[nH]1    inactive
CCOC(=O)c1c2c(n(Cc3ccccc3)c1C)-c1ccccc1C(=O)C2=O    inactive
